MEASUREMENT_DESCRIPTION: growth inhibition of WT strain, primary screen, mitochondrial fusion inhibitor project, WT and mutant strains, chemical genetic (AID 1362)
TEST_SETTINGS: mitochondrial fusion phenotypic screen, mutant strain inhibition; at 10 µM
About 4,000 (2.1%) of roughly 190,000 compounds were called active. This excerpt belongs to a sample that is enriched for actives.
EXPERIMENTAL_ENDPOINT: inhibition (%)

INSERT INTO measurements (compound, experimental_endpoint, unit_label, measured_result) VALUES
  ('COc1cccc2cc(S(=O)(=O)c3ccc(C)cc3)/c(=N/NS(=O)(=O)c3ccc(C)cc3)oc12', 'inhibition', '%', 0.47),
  ('CCc1ccc(-c2nn(-c3ccccc3)cc2CSC(=N)N)cc1', 'inhibition', '%', 35.6),
  ('CN(C)C(=O)c1nc2ccc(Cl)cn2c1CN1CCN(c2ncccn2)CC1', 'inhibition', '%', -9.73),
  ('Cc1nnnn1/C(=C\c1ccccc1)C(=O)OCC(=O)N1CC2(C)CC1CC(C)(C)C2 (stereo unspecified)', 'inhibition', '%', 11.4),
  ('Clc1ccc(-c2csc(-c3ccncc3)n2)cc1', 'inhibition', '%', 28.4),
  ('COc1ccccc1C(=O)N1CC2(C)CC1CC(C)(C)C2 (stereo unspecified)', 'inhibition', '%', 10.1),
  ('Cc1cc(C)cc(NC(=O)CSc2ccccc2)c1', 'inhibition', '%', -13.2),
  ('Cc1cccc(C(=O)NCC(=O)OCC(=O)N2CC3(C)CC2CC(C)(C)C3)c1 (stereo unspecified)', 'inhibition', '%', 5.06),
  ('COc1ccc(CNC(=O)CN2CCC(n3nnc4cc(F)ccc43)CC2)cc1', 'inhibition', '%', -18.3),
  ('N=C(N)SCc1cccc2ccccc12', 'inhibition', '%', 10.9),
  ('CCCc1cc(-c2nc(-c3ccc(C)cc3)cs2)ccn1', 'inhibition', '%', 50.8);

###

MEASUREMENT_DESCRIPTION: growth inhibition of WT strain, primary screen, mitochondrial fusion inhibitor project, WT and mutant strains, chemical genetic (AID 1362)
TEST_SETTINGS: mitochondrial fusion phenotypic screen, WT strain, growth inhibition; at 10 µM
In all, about 190,000 compounds went through this assay and about 4,000 (2.1%) were called active. Cut-off read from the data, not from the text of the source: active = inhibition above about 58%; inactive = the rest, inconclusive results apart; tested in S. cerevisiae. What follows is part of a selection rich in actives, with near analogues and random picks from the rest.
Outcomes: active, inactive

INSERT INTO results (compound, qualitative_label) VALUES
  ('Cc1ccc(Nc2ccc(C(N)=O)cc2[N+](=O)[O-])cc1', 'inactive'),
  ('COc1ccc(N2CCN(CCNC(=O)CCN3C(=O)COc4ccccc43)CC2)cc1', 'inactive'),
  ('Cn1c(=O)c2c(nc(SCC(=O)Nc3ccccc3N3CCCCC3)n2C)n(C)c1=O', 'inactive'),
  ('NS(=O)(=O)c1ccc(NC(=S)NC(=O)c2cccc(Br)c2)cc1', 'inactive'),
  ('CCCN(CC(=O)Nc1ccc(OC)c(OC)c1)CC(=O)Nc1ccc(F)c(F)c1F', 'inactive'),
  ('CCN(CC)C(=O)Cn1cc(S(=O)(=O)CC(=O)NCc2ccc3c(c2)OCO3)c2ccccc21', 'inactive'),
  ('Cc1ccc(Cl)c(NC(=O)CN2CCN(C=O)CC2)c1', 'inactive'),
  ('Cc1cc(=O)oc(C)c1C(=O)NCCN(C)Cc1ccccc1', 'inactive'),
  ('Cc1cc(-c2csc(N)n2)c(C)n1Cc1ccccc1', 'inactive'),
  ('Cc1nn(-c2ccccc2)c(Cl)c1/C=C/C(=O)c1ccc(O)cc1', 'inactive'),
  ('CCN(CC)CCNc1nc(-c2ccc(OC(F)F)cc2)c(C)s1', 'inactive'),
  ('CCOc1cccc(/C=C/c2ccc3ccccc3n2)c1OC(C)=O', 'inactive'),
  ('COc1ccccc1CCNC(=O)CSc1nnc2ccc(-c3cccnc3)nn12', 'inactive'),
  ('CC(CO)NCC12CC3CC(CC(C3)C1)C2 (stereo unspecified)', 'inactive'),
  ('CCOC(=O)c1ccc(NC(=S)Nc2cc(C)cc(C)n2)cc1', 'inactive'),
  ('NS(=O)(=O)c1ccc(NC(=S)Nc2ccc(Br)c(Cl)c2)cc1', 'active'),
  ('COc1cc(NC(=O)c2ccccc2NS(=O)(=O)c2ccc(Cl)s2)cc(OC)c1', 'active'),
  ('NS(=O)(=O)c1ccc(CCNC(=S)Nc2ccc(S(N)(=O)=O)cc2)cc1', 'inactive'),
  ('Cc1cc(C)c(OCCN2CC(C)OC(C)C2)c(Br)c1 (stereo unspecified)', 'inactive'),
  ('Cc1nn(-c2ccccc2)c(Cl)c1C(=O)Nc1ccccc1', 'inactive'),
  ('CC1CCN(C(=S)c2cccc(O)c2)CC1', 'inactive'),
  ('CCn1c(-c2ccncc2)n[nH]c1=S', 'inactive'),
  ('CC1Cc2ccccc2N1C(=O)CSc1nnc(C2CC2)n1C (stereo unspecified)', 'inactive'),
  ('COc1cccc(CNc2nc3nc4c(c(=O)n3[nH]2)CCC4)c1', 'inactive'),
  ('O=C(O)c1ccc(NC(=O)c2cccs2)cc1', 'inactive'),
  ('Cc1ccc(S(=O)(=O)Cc2cc(-c3ccc(Cl)cc3)no2)cc1', 'inactive'),
  ('FC(F)(F)c1cc(-c2ccco2)nc(N2CCOCC2)n1', 'inactive'),
  ('CC(=O)c1ccc(N2CCN(CC(=O)Nc3ccccc3N3CCOCC3)CC2)cc1', 'inactive'),
  ('COc1cccc(-c2nc(S(=O)(=O)c3ccccc3)c(N3CCOCC3)o2)c1', 'inactive'),
  ('COc1cc(NC(=O)c2cccnc2SC)cc(OC)c1', 'inactive'),
  ('Cc1ccc2nsnc2c1S(=O)(=O)N1CCCC1C(=O)O (stereo unspecified)', 'inactive'),
  ('O=C(CCCN1C(=O)/C(=C/c2ccccc2)SC1=S)Nc1ccc(O)cc1', 'inactive'),
  ('O=C(O)CCC(=O)NCc1ccc2[nH]c3c(c2c1)CCCC3', 'inactive'),
  ('COc1cccc(-c2cc3nc4c(c(N5CCC6(CC5)OCCO6)n3n2)CCCC4)c1', 'active'),
  ('Cc1ccc(Nc2cc(C)nc3c(C)ccc([N+](=O)[O-])c23)cc1', 'active'),
  ('Cc1cc(C)nc(Nc2cc([N+](=O)[O-])ccc2C)n1', 'inactive'),
  ('COc1cc(CNCCN(C)C)ccc1OCc1c(F)cccc1Cl', 'inactive'),
  ('O=C(Nc1ccnc(-c2ccncc2)n1)c1cccs1', 'inactive'),
  ('CCCc1cc(-c2n[nH]c(=S)n2Cc2ccccc2)cs1', 'active'),
  ('O=C(c1cccnc1)N(c1cc2sc(=O)oc2c2ccccc12)S(=O)(=O)c1ccccc1', 'active'),
  ('Cc1ccc(-n2nc3cc(Cl)c(NC(=O)c4ccco4)cc3n2)cc1', 'inactive'),
  ('CCCc1cc(-c2n[nH]c(=S)n2CC)c2ccccc2n1', 'inactive'),
  ('Cc1ccc(Cn2c(NC(=O)c3ccco3)nc3ccccc32)cc1', 'active'),
  ('O=C(Nc1ccccc1C(=O)O)c1cc(S(=O)(=O)N2CCCCC2)cs1', 'inactive'),
  ('Cc1cc(=O)oc(C)c1C(=O)Nc1cnc2ccccc2c1', 'active'),
  ('COc1ccc(N(C(=O)c2cccnc2)S(=O)(=O)c2ccc3c(c2)n(C)c(=O)n3C)cc1', 'inactive');
